Sourced from PubChem BioAssay (NCI)

tested on: HT29 colon; test: NCI-60 one-dose screen, 48 h (100 = growth as untreated, 0 = no growth, -100 = all killed); details: 10 µM unless noted
About 83,000 compounds went through this panel and 20% of them were active in at least one assay; those are over-represented in the sample as a whole.
For each of the molecules below, state its growth.
Give bare numbers, in %.

# per-item lookup of growth; items listed below
1. Cl[C@@H]1CCO[C@H](c2cc3ccccc3c3ccccc23)C1
2. O=C1C(SCCO)=C(SCCO)C(=O)N1c1ccc(-c2ccccc2)cc1
3. CCNC(=O)Oc1ccc(/C(=C(/CC)Cc2ccccc2)c2ccc(OCCN3CCOCC3)cc2)cc1

RESULT:
98.8
70.2
28.6

###

test system: SNB-19 CNS; assay: NCI-60 one-dose screen, 48 h; details: 10 µM unless noted
This is part of a sample that, as a whole, favours compounds with a hit. Of some 83,000 tested, about 20% had one in any assay. The source made the active and inactive calls. Rule for the calls: active = growth percent below 10; inactive = the rest.
Field 'call' accepts true (1) for active, false (0) for inactive

QUERY: Hi, do you know how COc1ccc(/C=C/C(=O)/C=C(/C=C/c2ccc(OC)c(OC)c2OC)OB(F)F)c(OC)c1OC came out in this test?
RESULT: false (0)

QUERY: Hi, do you know how COc1ccc(NC(=O)Nc2ccc(-c3ccc(OC)c(OC)c3)nc2C)cc1 came out in this test?
RESULT: false (0)

QUERY: Hi, do you know how Nc1nc(-c2cc3c(cc2Cl)NC(=O)/C3=C/c2ccc(Cl)cc2)cs1 came out in this test?
RESULT: false (0)

QUERY: Hi, do you know how COC1OCC(OS(=O)(=O)c2ccc(C)cc2)C(OC(=O)c2ccccc2)C1OC(=O)c1ccccc1 (stereo not drawn) came out in this test?
RESULT: false (0)

QUERY: Hi, do you know how c1ccc(OCC[P+](c2ccccc2)(c2ccccc2)c2ccccc2)cc1 came out in this test?
RESULT: false (0)

QUERY: Hi, do you know how COc1cc(/C=C2/Oc3cc4occc4c(OC)c3C2=O)ccc1OCC(=O)Nc1ccncc1 came out in this test?
RESULT: false (0)

QUERY: Hi, do you know how OCc1cn(-c2ccc(Cl)cc2)nc1-c1ccc(O)cc1 came out in this test?
RESULT: false (0)

QUERY: Hi, do you know how Nc1ncc(-c2ccc3ncnc(Nc4ccc(F)c(Cl)c4)c3c2)cn1 came out in this test?
RESULT: false (0)

QUERY: Hi, do you know how COc1ccc(C(=O)NC(=O)Nc2ccc3c(c2)NC(=O)/C3=C\c2[nH]c(C)c(C(=O)O)c2C)c(F)c1 came out in this test?
RESULT: false (0)

QUERY: Hi, do you know how O=C1c2ccccc2C(=O)c2c(NCCN=Cc3c(O)ccc4ccccc34)cccc21 came out in this test?
RESULT: false (0)

QUERY: Hi, do you know how FC(F)(F)c1cn(CC2CNC2)c2ncnc(Cl)c12 came out in this test?
RESULT: false (0)

QUERY: Hi, do you know how COc1cc(NS(=O)(=O)c2ccc(N)cc2)ncn1 came out in this test?
RESULT: false (0)

QUERY: Hi, do you know how COc1ccc2c(c1)nnc1c3cccnc3[nH]c21 came out in this test?
RESULT: false (0)

QUERY: Hi, do you know how COc1ccccc1N1CCN(CC(O)COc2c(Br)c(Br)c(Br)c3c2OC(C)(C)C3)CC1 (stereo not drawn) came out in this test?
RESULT: false (0)

QUERY: Hi, do you know how c1ccc2c(c1)Oc1cccnc1-n1nccc1-2 came out in this test?
RESULT: false (0)

QUERY: Hi, do you know how C=CCOc1ccc(/C(Cl)=N/N=C(\Cl)c2cc(OC)c(OC)c(OC)c2)cc1 came out in this test?
RESULT: false (0)

QUERY: Hi, do you know how S=c1[nH]nc(Cn2c3ccccc3c3ccncc32)o1 came out in this test?
RESULT: false (0)

QUERY: Hi, do you know how O=C(NNC(=O)c1ccc([N+](=O)[O-])cc1)c1ccc([N+](=O)[O-])cc1 came out in this test?
RESULT: false (0)

###

tested on: A549/ATCC NSCLC; experiment: NCI-60 one-dose screen, 48 h; settings: 10 µM unless noted
The panel holds about 83,000 compounds, 20% with a hit somewhere; the sample as a whole holds those more often. The source made the active and inactive calls. Rule for the calls: active = growth percent below 10; inactive = the rest.
Field 'call' accepts y (active), n (inactive)

QUERY: Hi, do you know how CC(=O)CC/C=C(\C)[C@H](O)[C@H](C)C(=O)O[C@H]1C[C@H](C)C=C2C=C[C@@]3(C)O[C@@H](O)CC(=O)[C@]3(C)[C@H]21 came out in this test?
RESULT: y

QUERY: Hi, do you know how Cc1ccc2oc(=O)cc(C3C(C#N)=C(N)Oc4c3ccc3ccccc43)c2c1 (stereo not drawn) came out in this test?
RESULT: n

QUERY: Hi, do you know how Cc1cc(Nc2ccc(Cl)c(Cl)c2)nc(N)n1 came out in this test?
RESULT: n

###

tested on: A498 renal; experiment: NCI-60 one-dose screen, 48 h (100 = growth as untreated, 0 = no growth, -100 = all killed); settings: 10 µM unless noted
This is part of a sample that, as a whole, favours compounds with a hit. Of some 83,000 tested, about 20% had one in any assay. Calls of active or inactive are those of the source. Rule for the calls: active = growth percent below 10; inactive = the rest.
Property name: growth

Solved cases (2 shown):
COc1ccccc1C(OC(C)=O)OC(C)=O = 113% (inactive)
O=C1C(Cl)=C(Nc2cccc3cc4ccccc4nc23)C(=O)c2ccccc21 = 46.5% (inactive)

Read the next record carefully.
QUERY: Kindly indicate its recorded growth. Item: O=C(c1cc(-c2ccc(Cl)cc2)nc2ccccc12)N1N=C(c2ccccc2)CC1c1cc(-c2ccccc2)nn1-c1ccccc1 (stereo not drawn)
RESULT: 92.5% (inactive)

###

For each of the compounds below, state its growth.
Tested on: PC-3 prostate
Assay: NCI-60 one-dose screen, 48 h (100 = growth as untreated, 0 = no growth, -100 = all killed)
Settings: 10 µM unless noted
Protocol: Growth inhibition of the PC-3 human tumor cell line is measured as a screen for anti-cancer activity. Cells are grown in 96 well plates and exposed to the test compound for 48 hours. Compounds are tested at a single concentration, which is 10^-5 M for most compounds. The reported endpoint is percent growth (GI% or GIPRCNT), where numbers from 0 - 100% represent growth inhibition, and numbers from -100% - 0 represent cell death. For example, a value of 40 represents 60% growth inhibition. […]
About 83,000 compounds went through this panel and 20% of them were active in at least one assay; those are over-represented in the sample as a whole.
Numbers only, in %.

Solved cases (6 shown):
Nc1nccc2c1ccn2-c1cccc(NC(=O)c2ccc(N3CCOCC3)c(C(F)(F)F)c2)c1 = 18
CC(=O)Nc1ccc(OC(=O)c2ccccc2O)cc1 = 94.8
CC(=O)N1N=C2N(Cc3ccccc3)C(=O)c3c(sc4c3CCCC4)N2C1c1cn(-c2ccccc2)nc1-c1ccc(Cl)cc1 (stereo unspecified) = 92.6
COc1ccc2c(c1)OC(N)=C(C#N)C2c1ccc(F)cc1 (stereo unspecified) = 27.9
COc1cc2ncnc(Oc3ccc(NC(=O)Nc4ccc(C5(C#N)CCCC5)cc4)c4ccccc34)c2cc1OC = 56.8
CN[C@@H](CCCNC(N)=NC/C=C(/C)CCC=C(C)C)C(=O)N(C)[C@@H](CCCNC(N)=NCC=C(C)C)C(=O)N[C@H](C)[C@H](OS(=O)(=O)O)c1ccc(OS(=O)(=O)O)c(COS(=O)(=O)O)c1 = 89.5

# per-item lookup of growth; items listed below
1. COc1ccc(SC2c3ccc(O)cc3Oc3nc(N)c(C#N)c(N)c32)cc1 (stereo unspecified)
2. O=C(Nc1ccc(-n2cc(-c3ccncc3)c(-c3ccc(O)c(Cl)c3)n2)cc1)Nc1cccc(Cl)c1Cl

RESULT:
56.1
29

# per-item lookup of growth; items listed below
1. COc1cc(CN(c2ccc(Cl)cc2)C2OC(=O)c3ccccc32)cc(OC)c1OC (stereo unspecified)
2. O=C(NC(=S)Nc1ccc(Cl)cc1)c1ccccc1
3. C=C1C(=O)O[C@H]2[C@H]1CC/C(COC(=O)c1ccc(C#N)cc1)=C\CC[C@@]1(C)O[C@@H]21

RESULT:
1. 62.6
2. 105
3. 50.6

###

test system: CCRF-CEM leukemia; test: NCI-60 one-dose screen, 48 h; conditions: 10 µM unless noted
About 83,000 compounds went through this panel and 20% of them were active in at least one assay; those are over-represented in the sample as a whole. Active and inactive are the calls of the source. The calls were made as follows: active = growth percent below 10; inactive = the rest.
Field 'call' accepts active, inactive

NC(CCCC(N)C(=O)c1ccccc1)C(=O)O (configuration not stated) = inactive

QUERY: Hi, do you know how O=C1c2ccccc2C(=O)c2c(NCCN=Cc3c(O)ccc4ccccc34)cccc21 came out in this test?
RESULT: active

QUERY: Hi, do you know how O=C(NC(=S)Nc1ccc(Cl)cc1)c1ccccc1 came out in this test?
RESULT: inactive

QUERY: Hi, do you know how NC(=O)C1=C[C@H]2[C@H]3C=C[C@@]2(O)C(=O)O[C@@H]3O1 came out in this test?
RESULT: inactive

QUERY: Hi, do you know how Cc1c(NC(=O)c2sc3nc4c(cc3c2N)CN(Cc2ccccc2)CC4)cccc1C(F)(F)F came out in this test?
RESULT: inactive

QUERY: Hi, do you know how CCN(CC)CCNCC(O)Cc1ccc(OC)cc1 (configuration not stated) came out in this test?
RESULT: inactive

QUERY: Hi, do you know how COc1ccc(C(=O)NC(=O)Nc2ccc3c(c2)NC(=O)/C3=C\c2[nH]c(C)c(CCC(=O)O)c2C)c(F)c1 came out in this test?
RESULT: inactive

QUERY: Hi, do you know how Nc1nc(Cl)cc(NCc2ccc(CNc3cc(Cl)nc(N)n3)cc2)n1 came out in this test?
RESULT: inactive

QUERY: Hi, do you know how COc1ccc(-c2nn(-c3ccc(NC(=O)Nc4ccc(Cl)c(C(F)(F)F)c4)cc3)cc2-c2ccncc2)cc1Cl came out in this test?
RESULT: active

QUERY: Hi, do you know how CC(C)C(=O)Nc1nc2c(s1)CCCc1ccn(S(=O)(=O)c3ccccc3)c1-2 came out in this test?
RESULT: inactive

QUERY: Hi, do you know how C=CCn1c(SCC(=O)Nc2ccc(/C(C)=N\O)cc2)nnc1-c1cc(-c2ccc(OC)cc2)nc2ccccc12 came out in this test?
RESULT: inactive

QUERY: Hi, do you know how CN(C)c1ccc(/C=c2\s/c(=C\C(=O)C(C)(C)C)[nH]c2=O)cc1 came out in this test?
RESULT: inactive

QUERY: Hi, do you know how CN(C)c1ccc(/C=N/n2c(-c3cc(F)c(Cl)cc3Cl)nn(CN3CCOCC3)c2=S)cc1 came out in this test?
RESULT: inactive
